The measurements presented in this section are drawn from ChEMBL document CHEMBL4184141.

Assay: Intrinsic clearance in human liver microsomes in presence of NADPH by LC-MS/MS analysis
Format: ADME, microsome
Details: read-out: CLH
property: microsomal CLint (µL/min/mg)
Answers are plain numbers, in µL/min/mg.

Noted for Cc1nc(-c2ccc(-c3ccccc3)cc2)sc1-c1ccnc(NC(=N)N2CCN(C)CC2)n1 : its microsomal CLint reads 15.3

###

Assay: Efflux ratio of permeability from basolateral to apical side over apical to basolateral side of human Caco2 cells by LC-MS/MS analysis
Assay type: ADME, cell-based
Details: Caco-2
property: efflux ratio

Known efflux ratio results, listed for orientation:
Noted for Cc1nc(-c2ccc(-c3ccccc3)cc2)sc1-c1ccnc(NC(=N)N2CCN(C)CC2)n1 : its efflux ratio reads > 2

Noted for C/C(=N\NC(=N)N)c1sc(-c2ccc(-c3ccccc3)cc2)nc1C : its efflux ratio reads > 2

Turning now to a further molecule:
Noted for CCCCc1ccc(-c2nc(C)c(/C(C)=N/NC(=N)N)s2)cc1 : its efflux ratio reads > 2

###

Please respond with reported MIC for every item in the list.
System: Staphylococcus aureus
Assay: Antibacterial activity against Staphylococcus aureus RN4220 up to 20 hrs by broth microdilution assay
Assay type: functional
Conditions: RN4220, 20 h
Numbers only, in mg/L.

Known MIC results, listed for orientation:
Entry CNC(=N)Nc1nccc(-c2sc(-c3ccc(-c4ccccc4)cc3)nc2C)n1 , Staphylococcus aureus data, MIC value: 8

Entry Cc1nc(-c2ccc(-c3ccccc3)cc2)sc1-c1ccnc(NN2CCN(C)CC2)n1 , Staphylococcus aureus data, MIC value: 4

Entry Cc1nc(-c2ccc(-c3ccccc3)cc2)sc1-c1ccnc(NC(=N)N2CCOCC2)n1 , Staphylococcus aureus data, MIC value: 8

Turning now to a further compound:
Entry Cc1nc(-c2ccc(-c3ccccc3)cc2)sc1-c1ccnc(NC(=N)N2CCN(C)CC2)n1 , Staphylococcus aureus data, MIC value: 2

###

Test system: Staphylococcus aureus
Assay: Antibacterial activity against methicillin-resistant Staphylococcus aureus 2658 RCMB up to 20 hrs by broth microdilution assay
Type: functional
property: MIC

Noted for Cc1nc(-c2ccc(-c3ccccc3)cc2)sc1-c1ccnc(N2CCC2)n1 : its MIC reads > 25 µg/mL

Noted for CCCCNc1nccc(-c2sc(-c3ccc(-c4ccccc4)cc3)nc2C)n1 : its MIC reads > 25 µg/mL

Turning now to a further molecule:
Noted for Cc1nc(-c2ccc(-c3ccccc3)cc2)sc1-c1ccnc(NC(=N)N2CCCCC2)n1 : its MIC reads > 25 µg/mL

###

Test system: Staphylococcus aureus
Experiment: Antibacterial activity against methicillin-resistant Staphylococcus aureus 2658 RCMB up to 20 hrs by broth microdilution assay
Type: functional
property: MIC (µg/mL)
Numbers only, in µg/mL.

Noted for CN[C@H](CC(C)C)C(=O)N[C@H]1C(=O)N[C@@H](CC(N)=O)C(=O)N[C@H]2C(=O)N[C@H]3C(=O)N[C@H](C(=O)N[C@H](C(=O)O)c4cc(O)cc(O)c4-c4cc3ccc4O)[C@H](O)c3ccc(c(Cl)c3)Oc3cc2cc(c3O[C@@H]2O[C@H](CO)[C@@H](O)[C@H](O)[C@H]2O[C@H]2C[C@](C)(N)[C@H](O)[C@H](C)O2)Oc2ccc(cc2Cl)[C@H]1O : its MIC reads 1.56

Noted for Cc1nc(-c2ccc(-c3ccccc3)cc2)sc1-c1ccnc(NN2CCN(C)CC2)n1 : its MIC reads 0.78

Noted for Cc1nc(-c2ccc(-c3ccccc3)cc2)sc1-c1ccnc(N2CCOCC2)n1 : its MIC reads 3.12

Turning now to a further compound:
Noted for CCCCc1ccc(-c2nc(C)c(-c3ccnc(N)n3)s2)cc1 : its MIC reads 3.6
